# system: HIV-1 integrase (Human immunodeficiency virus type 1 group M subtype B)
endpoint: pIC50
// pIC50: -log10(molar conc.)

Lookup: API: value(readout=pIC50, system=HIV-1 integrase (Human immunodeficiency virus type 1 group M subtype B)) for record "O=C(C=C(O)c1ccccn1)c1ccc(Cc2ccc(F)cc2)o1"
Found: 5.87

Lookup: API: value(readout=pIC50, system=HIV-1 integrase (Human immunodeficiency virus type 1 group M subtype B)) for record "O=C(C=C(O)c1nc[nH]n1)c1occc1Cc1ccc(F)cc1"
Found: 5.86

Lookup: API: value(readout=pIC50, system=HIV-1 integrase (Human immunodeficiency virus type 1 group M subtype B)) for record "O=C(C=C(O)c1nn[nH]n1)c1occc1Cc1ccc(F)cc1"
Found: 5.87

Lookup: API: value(readout=pIC50, system=HIV-1 integrase (Human immunodeficiency virus type 1 group M subtype B)) for record "O=C(C=C(O)c1nc[nH]n1)c1ccoc1Cc1ccc(F)cc1"
Found: 5.81

Lookup: API: value(readout=pIC50, system=HIV-1 integrase (Human immunodeficiency virus type 1 group M subtype B)) for record "O=C(C=C(O)c1ncccn1)c1cnc(Cc2ccc(F)cc2)o1"
Found: 5.83

Lookup: API: value(readout=pIC50, system=HIV-1 integrase (Human immunodeficiency virus type 1 group M subtype B)) for record "CCCn1cc(Cc2ccc(F)cc2)c(C(=O)C=C(O)c2nc[nH]n2)c1"
Found: 5.35

Lookup: API: value(readout=pIC50, system=HIV-1 integrase (Human immunodeficiency virus type 1 group M subtype B)) for record "O=C(C=C(O)c1nc[nH]n1)c1cc(C(=O)O)n(Cc2ccccc2)c1"
Found: 5.53

Lookup: API: value(readout=pIC50, system=HIV-1 integrase (Human immunodeficiency virus type 1 group M subtype B)) for record "O=C(C=C(O)c1ncccn1)c1ccc(Cc2ccc(F)cc2)o1"
Found: 5.97

Lookup: API: value(readout=pIC50, system=HIV-1 integrase (Human immunodeficiency virus type 1 group M subtype B)) for record "O=C(C=C(O)c1nn[nH]n1)c1ccc(Cc2ccc(F)cc2)o1"
Found: 5.90

----------
Assignment: determine reported melting point for the given molecules.

Lookup: For the molecule "O=C(C=C(O)c1ncccn1)c1cnc(Cc2ccc(F)cc2)o1" , what melting point is on record?
Found: 97 to 100 °C

Lookup: For the molecule "O=C(C=C(O)c1nn[nH]n1)c1occc1Cc1ccc(F)cc1" , what melting point is on record?
Found: 171 to 174 °C

Lookup: For the molecule "O=C(C=C(O)c1ccccn1)c1ccc(Cc2ccc(F)cc2)o1" , what melting point is on record?
Found: 84 to 85 °C

Lookup: For the molecule "O=C(C=C(O)c1nn[nH]n1)c1c[nH]cc1CCc1ccccc1" , what melting point is on record?
Found: 228 to 230 °C

Lookup: For the molecule "O=C(C=C(O)c1nn[nH]n1)c1ccc(Cc2ccc(F)cc2)o1" , what melting point is on record?
Found: 121 to 123 °C

Lookup: For the molecule "O=C(C=C(O)c1nc[nH]n1)c1occc1Cc1ccc(F)cc1" , what melting point is on record?
Found: 221 to 223 °C

Lookup: For the molecule "O=C(C=C(O)c1ccccn1)c1cnc(Cc2ccc(F)cc2)o1" , what melting point is on record?
Found: 108 to 109 °C

Lookup: For the molecule "O=C(C=C(O)c1nc[nH]n1)c1cc(C(=O)O)n(Cc2ccccc2)c1" , what melting point is on record?
Found: 264 to 265 °C

Lookup: For the molecule "O=C(C=C(O)c1nc[nH]n1)c1ccoc1Cc1ccc(F)cc1" , what melting point is on record?
Found: 144 to 147 °C

----------
// HIV-1 integrase (Human immunodeficiency virus type 1 group M subtype B, UniProt P12497) IC50 records
Write the number in nM without appending the unit.

Lookup: API: value(readout=IC50, system=HIV-1 integrase (Human immunodeficiency virus type 1 group M subtype B, UniProt P12497)) for record O=C(C=C(O)c1nn[nH]n1)c1cn(S(=O)(=O)c2ccccc2)cc1CCc1ccccc1 [Compound I-21]
Found: 1200

Lookup: API: value(readout=IC50, system=HIV-1 integrase (Human immunodeficiency virus type 1 group M subtype B, UniProt P12497)) for record O=C(C=C(O)c1ccccn1)c1cnc(Cc2ccc(F)cc2)o1 [Compound I-50]
Found: 1230

Lookup: API: value(readout=IC50, system=HIV-1 integrase (Human immunodeficiency virus type 1 group M subtype B, UniProt P12497)) for record O=C(C=C(O)c1nc[nH]n1)c1c[nH]cc1Cc1ccc(F)cc1 [Compound I-19]
Found: 2020

Lookup: API: value(readout=IC50, system=HIV-1 integrase (Human immunodeficiency virus type 1 group M subtype B, UniProt P12497)) for record O=C(C=C(O)c1nn[nH]n1)c1ccoc1Cc1ccc(F)cc1 [Compound I-20]
Found: 1020

Lookup: API: value(readout=IC50, system=HIV-1 integrase (Human immunodeficiency virus type 1 group M subtype B, UniProt P12497)) for record O=C(C=C(O)c1nn[nH]n1)c1c[nH]cc1CCc1ccccc1 [Compound I-22]
Found: 1910

----------
endpoint: melting point

Lookup: For the compound "O=C(C=C(O)c1nn[nH]n1)c1ccoc1Cc1ccc(F)cc1" , what melting point is on record?
Found: 150 to 153 °C

Lookup: For the compound "O=C(C=C(O)c1nn[nH]n1)c1cn(S(=O)(=O)c2ccccc2)cc1CCc1ccccc1" , what melting point is on record?
Found: 178 to 181 °C

Lookup: For the compound "O=C(C=C(O)c1nc[nH]n1)c1c[nH]cc1Cc1ccc(F)cc1" , what melting point is on record?
Found: 210 to 213 °C

Lookup: For the compound "CCCn1cc(Cc2ccc(F)cc2)c(C(=O)C=C(O)c2nc[nH]n2)c1" , what melting point is on record?
Found: 210 to 211 °C
